Provenance of the data: patent US20140370037A1

- test.system: T1, human DLL3 antigen (human, UniProt Q9NYJ7 27-492, limits assumed)
- T1 construct: also called immobilized human DLL3; recombinant human DLL3
- T1 sequence (looked up): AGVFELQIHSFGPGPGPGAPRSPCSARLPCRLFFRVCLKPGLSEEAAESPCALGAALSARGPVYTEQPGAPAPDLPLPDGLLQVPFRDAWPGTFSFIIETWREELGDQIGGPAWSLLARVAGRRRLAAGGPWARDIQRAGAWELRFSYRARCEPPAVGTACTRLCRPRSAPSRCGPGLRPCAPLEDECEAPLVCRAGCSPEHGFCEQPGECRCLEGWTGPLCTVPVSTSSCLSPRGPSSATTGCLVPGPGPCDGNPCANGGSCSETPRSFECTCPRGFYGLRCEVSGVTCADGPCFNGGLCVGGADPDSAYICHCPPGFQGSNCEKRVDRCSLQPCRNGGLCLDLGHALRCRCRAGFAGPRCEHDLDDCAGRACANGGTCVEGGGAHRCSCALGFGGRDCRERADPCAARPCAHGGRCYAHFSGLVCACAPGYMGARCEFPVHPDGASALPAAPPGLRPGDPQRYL
- assay.remarks: ELISA or flow cytometry screen
value.kind: binding result

SC16.7 (antibody, V domains shown, murine mAb) VH: EVQLQQSGPELVKPGASVKISCKASGYSFTGYKMHWVKQSHVKSLEWIGRINPYNGATSYNQNFKDKATLTVDKSSSTAYMDLHSLTSEDSAVYFCARGDYRYDWFAYWGQGTLVTVSA VL: NIMMTQSPSSLAVSAGEKVTMSCKSSQSVLYSSNQKNYLAWYQQKPGQSPKLLIYWASTRESGVPDRFTGSGSGTDFTLTISTVQVEDLAVYYCHQYLSSWTFGGGTKLEIK	binds
SC16.38 (antibody, V domains shown, murine mAb) VH: EVQLQQSGAELVKPGASVKLSCTVSGFNIKDTYIHWVKQRPEQGLEWIGRIDPANGNTKYDPKFQGKATITADTSSNTAYLQLSSLTSEDTAVYYCARPTGYFEYWGQGTTLTVSS VL: QIVLTQSPAIMSASPGEKVTMTCSASSSINYMHWYQQKPGTSPKRWIYDTSKLASGVPARFSGSGSGTSYSLTISSMEAEDAATYYCHQRSTWTFGGGTKLEIK	binds
SC16.80 (antibody, V domains shown, murine mAb) VH: EVQLQQSGPELVKPGGSKKISCKASGYSFTGYSMNWVKQSHGKNLEWIGLINPYSGGTIYNQKFKGKATLTVDKSSSTAYMELLSLTSEDSAVYYCARRSDYPLVYWGQGTLVTVSA VL: ETTVTQSPASLSMAIGEKVTIRCITSTDIDDDMIWYQQKPGEPPKLLISEGNTLRPGVPSRFSSSGYGTDFVFTIENMLSEDVADYYCLKRDDLPYTFGGGTQVEIKR	binds
